// AC50 collected for Neuronal acetylcholine receptor subunit alpha-4 (Homo sapiens, UniProt P43681)

Use the examples below as a reference point.
{"columns": ["Molecule", "Experimental system", "Result"],
 "data": [
  ["N[C@@H]1[C@H]2CN(c3nc4c(cc3F)c(=O)c(C(=O)O)cn4-c3ccc(F)cc3F)C[C@@H]12", "Neuronal acetylcholine receptor subunit alpha-4 (Homo sapiens, UniProt P43681)", "> 30 µM"],
  ["CC(=O)NCCCS(=O)(=O)O [ACAMPROSATE]", "Neuronal acetylcholine receptor subunit alpha-4 (Homo sapiens, UniProt P43681)", "> 30 µM"]
]}

Neuronal acetylcholine receptor subunit alpha-4 (Homo sapiens, UniProt P43681) data for CN1C(C(=O)Nc2ccccn2)=C(O)c2sc(Cl)cc2S1(=O)=O ; its AC50: > 10 µM

Neuronal acetylcholine receptor subunit alpha-4 (Homo sapiens, UniProt P43681) data for Clc1ccc(C(c2ccccc2Cl)C(Cl)Cl)cc1 (stereo not given) ; its AC50: > 10 µM

Neuronal acetylcholine receptor subunit alpha-4 (Homo sapiens, UniProt P43681) data for c1ccc([C@H]2CN3CCSC3=N2)cc1 ; its AC50: > 30 µM

Neuronal acetylcholine receptor subunit alpha-4 (Homo sapiens, UniProt P43681) data for CCC(C(=O)O)c1ccc(N2Cc3ccccc3C2=O)cc1 (stereo not given) ; its AC50: > 30 µM

* * *

// AC50 collected for Sodium-dependent dopamine transporter (Homo sapiens, UniProt Q01959)

{"columns": ["Molecule", "AC50"],
 "data": [
  ["O=c1[nH]c(=O)n([C@H]2C[C@H](O)[C@@H](CO)O2)cc1F", "> 30 µM"]
]}

Sodium-dependent dopamine transporter (Homo sapiens, UniProt Q01959) data for CCCC1O[C@@H]2C[C@H]3[C@@H]4CCC5=CC(=O)C=C[C@]5(C)[C@H]4[C@@H](O)C[C@]3(C)[C@]2(C(=O)CO)O1 (some centres undefined) [BUDESONIDE] ; its AC50: > 30 µM

Sodium-dependent dopamine transporter (Homo sapiens, UniProt Q01959) data for CCCCS(=O)(=O)N[C@@H](Cc1ccc(OCCCCC2CCNCC2)cc1)C(=O)O ; its AC50: > 30 µM

Sodium-dependent dopamine transporter (Homo sapiens, UniProt Q01959) data for Cc1cc(NS(=O)(=O)c2ccc(N)cc2)nc(C)n1 ; its AC50: > 30 µM

Sodium-dependent dopamine transporter (Homo sapiens, UniProt Q01959) data for CCOC(=O)[C@H](CCc1ccccc1)N[C@@H](C)C(=O)N1[C@H](C(=O)O)C[C@H]2CCCC[C@@H]21 ; its AC50: > 30 µM

Sodium-dependent dopamine transporter (Homo sapiens, UniProt Q01959) data for C=CCc1ccccc1OCC(O)CNC(C)C (centres undefined) ; its AC50: > 0.3 µM

Sodium-dependent dopamine transporter (Homo sapiens, UniProt Q01959) data for Oc1c(Cl)cc(Cl)c2cccnc12 ; its AC50: > 30 µM

Sodium-dependent dopamine transporter (Homo sapiens, UniProt Q01959) data for CN1CCN(C2=Nc3ccccc3Sc3ccc(Cl)cc32)CC1 ; its AC50: 3.62 µM

Sodium-dependent dopamine transporter (Homo sapiens, UniProt Q01959) data for CCOC(=O)/C=C1\SC(N2CCCCC2)C(=O)N1C (centres undefined) ; its AC50: > 30 µM

* * *

// AC50 collected for Vasopressin V2 receptor (Homo sapiens)

{"columns": ["Compound", "Experimental system", "AC50"],
 "data": [
  ["NCC[C@H](O)C(=O)N[C@@H]1C[C@H](N)[C@@H](O[C@H]2O[C@H](CN)[C@@H](O)[C@H](O)[C@H]2O)[C@H](O)[C@H]1O[C@H]1O[C@H](CO)[C@@H](O)[C@H](N)[C@H]1O", "Vasopressin V2 receptor (Homo sapiens)", "> 10 µM"],
  ["Cc1cccc(Nc2ccccc2C(=O)O)c1C", "Vasopressin V2 receptor (Homo sapiens)", "> 10 µM"],
  ["C[C@](N)(Cc1ccc(O)c(O)c1)C(=O)O", "Vasopressin V2 receptor (Homo sapiens)", "> 10 µM"],
  ["CCc1c(Cl)c(O)c(Cl)c(O)c1C(=O)O[C@H]1[C@H](O)[C@H](OC)[C@H](OC/C2=C\\C=C\\C[C@H](O)/C(C)=C/[C@H](CC)[C@@H](O[C@@H]3OC(C)(C)[C@@H](OC(=O)C(C)C)[C@H](O)[C@@H]3O)/C(C)=C/C(C)=C/C[C@@H]([C@@H](C)O)OC2=O)O[C@@H]1C", "Vasopressin V2 receptor (Homo sapiens)", "> 30 µM"],
  ["O=[N+]([O-])O[C@@H]1CO[C@H]2[C@@H]1OC[C@@H]2O [ISOSORBIDE MONONITRATE]", "Vasopressin V2 receptor (Homo sapiens)", "> 30 µM"],
  ["Cc1cccc(C(C)c2cnc[nH]2)c1C (stereo not drawn)", "Vasopressin V2 receptor (Homo sapiens)", "> 30 µM"]
]}

Vasopressin V2 receptor (Homo sapiens) data for C[C@@H](O)[C@H]1C(=O)N2C(C(=O)O)=C(S[C@@H]3CN[C@H](C(=O)N(C)C)C3)[C@H](C)[C@H]12 ; its AC50: > 10 µM

Vasopressin V2 receptor (Homo sapiens) data for COc1cc(NC(C)CCCN)c2ncccc2c1 (stereo not drawn) ; its AC50: > 30 µM
